molecular target: Recombinant human M3 receptor (Homo sapiens, UniProt P20309); construct: expressed in transfected cells; host or cells: CHO-K1 cells (membranes); assay: biochemical; type: binding; conditions: SPA format; read-out: M3 Ki (SPA format)
Sequence (P20309 whole entry): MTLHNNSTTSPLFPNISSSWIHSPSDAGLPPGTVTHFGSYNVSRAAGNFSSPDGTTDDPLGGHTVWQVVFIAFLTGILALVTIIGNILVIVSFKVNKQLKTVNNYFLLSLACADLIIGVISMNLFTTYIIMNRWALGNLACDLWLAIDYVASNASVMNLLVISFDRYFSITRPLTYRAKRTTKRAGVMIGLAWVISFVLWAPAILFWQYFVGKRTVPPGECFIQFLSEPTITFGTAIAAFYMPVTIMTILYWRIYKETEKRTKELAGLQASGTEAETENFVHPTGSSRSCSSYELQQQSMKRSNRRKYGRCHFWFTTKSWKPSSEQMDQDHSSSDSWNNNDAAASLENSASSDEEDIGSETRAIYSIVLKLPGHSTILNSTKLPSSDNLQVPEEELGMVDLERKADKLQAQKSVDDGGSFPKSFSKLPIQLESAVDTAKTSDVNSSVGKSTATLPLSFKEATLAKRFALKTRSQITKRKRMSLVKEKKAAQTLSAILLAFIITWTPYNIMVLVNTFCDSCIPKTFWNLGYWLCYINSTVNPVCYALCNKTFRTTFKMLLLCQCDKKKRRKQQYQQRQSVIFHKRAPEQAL
pKi: −log10 of the molar value.
QUANTITY_MEASURED: pKi

# COMPOUND, ENDPOINT_RESULT
measured = [
    ("O[C@](c1ccccc1)(c1ncc(C[N+]23CCC(CC2)C(COc2ccc(F)cc2)C3)o1)C1CCCCC1 (single isomer, unassigned) [Example 82]", "> 8.30"),
    ("Cc1ccc(O[C@H]2C[N+]3(Cc4cnc(C(O)(c5ccccc5)c5ccccc5)o4)CCC2CC3)cc1 [Example 58]", "> 8.30"),
    ("OC(c1ccccc1)(c1cc(C[N+]23CCC(CC2)[C@@H](SCc2ccccc2)C3)on1)C1CCCCC1 (single isomer, unassigned) [Example 126]", "> 8.30"),
    ("Cc1ccc(O[C@H]2C[N+]3(Cc4nc(C(O)(c5ccccc5)C5CCCCC5)no4)CCC2CC3)cc1Cl (single isomer, unassigned) [Example 129]", "> 8.30"),
    ("OC(c1ccccc1)(c1ccccc1)c1ncc(C[N+]23CCC(CC2)[C@H](COc2ccccc2)C3)o1 [Example 92]", "7.70 to 8.30"),
    ("Cc1ccc(CO[C@H]2C[N+]3(Cc4cnc([C@](O)(c5ccccc5)C5CCCCC5)o4)CCC2CC3)cc1 [Example 34]", "> 8.30"),
]

----------
target: Recombinant human M3 receptor (Homo sapiens); construct: expressed in transfected cells; host or cells: CHO-K1 cells (membranes); experiment: biochemical; type: binding; settings: SPA format; read-out: M3 Ki (SPA format)
pKi: −log10 of the molar value. Counter-ions that a name gives are not always drawn.
QUANTITY_MEASURED: pKi

# COMPOUND, ENDPOINT_RESULT
rows = [
    ("OC(c1ccccc1)(c1noc(C[N+]23CCC(CC2)[C@@H](Sc2ccccc2)C3)n1)C1CCCCC1 (single isomer, unassigned)", "> 8.30"),
    ("O[C@](c1ccccc1)(c1ncc(C[N+]23CCC(CC2)[C@@H](Oc2cccc(Cl)c2)C3)o1)C1CCCCC1", "> 8.30"),
    ("OC(c1ccccc1)(c1noc(C[N+]23CCC(CC2)[C@H](COc2ccccc2)C3)n1)C1CCCCC1 (single isomer, unassigned)", "> 8.30"),
    ("O=C(N[C@@H]1C[N+]2(Cc3cnc([C@](O)(c4ccccc4)C4CCCCC4)o3)CCC1CC2)c1ccc(Cl)cc1 [Example 19, formate]", "> 8.30"),
    ("OC(c1ccccc1)(c1ccccc1)c1noc(C[N+]23CCC(CC2)[C@@H](Oc2ccccc2)C3)n1", "> 8.30"),
    ("O[C@](c1ccccc1)(c1nnc(C[N+]23CCC(CC2)[C@@H](OCc2ccccc2)C3)o1)C1CCCCC1 [Example 56, formate]", "> 8.30"),
    ("O[C@](c1ccccc1)(c1ncc(C[N+]23CCC(CC2)[C@H](Oc2ccccc2)C3)o1)C1CCCCC1", "7.70 to 8.30"),
    ("O[C@](c1ccccc1)(c1ncc(C[N+]23CCC(CC2)[C@H](CSc2cccc(F)c2)C3)o1)C1CCCCC1", "> 8.30"),
    ("O[C@](c1ccccc1)(c1ncc(C[N+]23CCC(CC2)[C@@H](OCc2ccc(Cl)c(Cl)c2)C3)o1)C1CCCCC1 [Example 22, formate]", "> 8.30"),
    ("N#Cc1cccc(O[C@H]2C[N+]3(Cc4cnc(C(O)(c5ccccc5)c5ccccc5)o4)CCC2CC3)c1", "> 8.30"),
    ("OC(c1ccccc1)(c1ccccc1)c1ncc(C[N+]23CCC(CC2)[C@@H](Oc2ccc(C(F)(F)F)cc2)C3)o1", "7.70 to 8.30"),
    ("OC(c1ccccc1)(c1ccccc1)c1ncc(C[N+]23CCC(CC2)[C@@H](COc2ccccc2)C3)o1", "> 8.30"),
    ("OC(c1ccccc1)(c1cc(C[N+]23CCC(CC2)C(CSc2ccc(F)cc2)C3)on1)C1CCCCC1 (single isomer, unassigned)", "7.70 to 8.30"),
    ("OC(c1ccccc1)(c1ccccc1)c1ncc(C[N+]23CCC(CC2)[C@@H](Oc2ccc(Cl)c(Cl)c2)C3)o1", "> 8.30"),
    ("O[C@](c1ccccc1)(c1ncc(C[N+]23CCC(CC2)[C@@H](Oc2ccc(Cl)cc2)C3)o1)C1CCCCC1", "> 8.30"),
    ("O[C@](c1ccccc1)(c1ncc(C[N+]23CCC(CC2)C(Cc2ccccc2)C3)o1)C1CCCCC1 (some centres unmarked) [Example 61, formate]", "> 8.30"),
    ("OC(c1ccccc1)(c1noc(C[N+]23CCC(CC2)[C@@H](OCc2ccccc2)C3)n1)C1CCCCC1 (single isomer, unassigned) [Example 30, formate]", "> 8.30"),
    ("OC(c1ccccc1)(c1noc(C[N+]23CCC(CC2)[C@@H](Oc2cccc(F)c2)C3)n1)C1CCCCC1 (single isomer, unassigned)", "> 8.30"),
    ("O[C@](c1ccccc1)(c1ncc(C[N+]23CCC(CC2)[C@@H](SCc2ccccc2)C3)o1)C1CCCCC1", "> 8.30"),
    ("C=CCOCC1C[N+]2(Cc3cnc([C@](O)(c4ccccc4)C4CCCCC4)o3)CCC1CC2 (single isomer, unassigned) [Example 89, formate]", "> 8.30"),
    ("O[C@](c1ccccc1)(c1ncc(C[N+]23CCC(CC2)[C@@H](CSc2ccccc2)C3)o1)C1CCCCC1", "> 8.30"),
    ("OC(c1ccccc1)(c1ccccc1)c1ncc(C[N+]23CCC(CC2)[C@@H](Oc2cc(Cl)cc(Cl)c2)C3)o1", "< 7.70"),
    ("O[C@](c1ccccc1)(c1nnc(C[N+]23CCC(CC2)[C@@H](Sc2ccccc2)C3)o1)C1CCCCC1", "> 8.30"),
    ("O[C@](c1ccccc1)(c1ncc(C[N+]23CCC(CC2)[C@@H](SC2CCCCC2)C3)o1)C1CCCCC1", "> 8.30"),
    ("OC(c1ccccc1)(c1cc(C[N+]23CCC(CC2)[C@@H](CSc2ccccc2)C3)on1)C1CCCCC1 (single isomer, unassigned)", "> 8.30"),
    ("O[C@](c1ccccc1)(c1nnc(C[N+]23CCC(CC2)[C@H](CSc2ccccc2)C3)o1)C1CCCCC1", "> 8.30"),
]
